RESULT TYPE: glass transition temperature (°C)

> print(dat)
                                   molecule                   result.type  unit.name  reading
1  *CC(=O)Nc1ccc(NC(=O)c2ccc3c(c2)C(=O)N(*)C3=O)cc1 (repeat unit)  glass transition temperature         °C   292.00
2  *CCCCOC(=O)Nc1ccc(Cc2ccc(NC(=O)O*)cc2)cc1 (repeat unit)  glass transition temperature         °C   109.00
3      *NC(CCC(=O)OCCC)C(*)=O (repeat unit)  glass transition temperature         °C   -10.00

###

glass transition temperature listing for selected compounds.

COMPOUND	glass transition temperature, °C
*CC(*)(C)C(=O)OCCN(CC)CC (repeat unit)	26.00
*Oc1cccc2ccc(Oc3ccc(NC(=O)c4ccc(Oc5ccccc5Oc5ccc(C(=O)Nc6ccc(*)cc6)cc5)cc4)cc3)cc12 (repeat unit)	180.00
*Oc1ccc(C(=O)Nc2ccccc2-c2ccc(NC(=O)c3ccc(*)cc3)cc2)cc1 (repeat unit)	251.00
*c1ccc(Oc2ccc(-c3ccc(Oc4ccc(N5C(=O)c6cccc(Oc7c(C)cc(Cc8cc(C)c(Oc9cccc%10c9C(=O)N(*)C%10=O)c(C)c8)cc7C)c6C5=O)cc4)cc3)cc2)cc1 (repeat unit)	259.00
*CCCCCNC(=O)c1ccc(C(=O)N*)cc1 (repeat unit)	177.00
*c1ccc(OCCCOc2ccc(N3C(=O)c4ccc(-c5cccc6c5C(=O)N(*)C6=O)cc4C3=O)cc2)cc1 (repeat unit)	237.50
*/C=C/c1cc(OCCCCCCCCCCCC)c(/C=C/c2ccc(*)cc2)cc1OCCCCCCCCCCCC (repeat unit)	38.00
*CC(*)(CC(=O)OC)C(=O)OC12CC3CC(CC(C3)C1)C2 (repeat unit)	197.00
*CC(*)(C)C(=O)OC1CCC1 (repeat unit)	119.00
*CCN(CCOC(=O)NCCCCCCNC(=O)O*)c1ccc(/N=N/c2ccc([N+](=O)[O-])cc2)c(C)c1 (repeat unit)	75.00
*Oc1cc(Cl)cc(Cl)c1* (repeat unit)	165.00
*C(=O)Nc1cccc(Oc2cccc(Oc3cccc(NC(=O)c4ccc5c(c4)C(=O)N(c4cccc(Oc6cccc(Oc7cccc(N8C(=O)c9ccc(*)cc9C8=O)c7)c6C#N)c4)C5=O)c3)c2C#N)c1 (repeat unit)	214.00
*CCOCCOCCN1C(=O)c2ccc(C(=O)Oc3ccc(OC(=O)c4ccc5c(c4)C(=O)N(*)C5=O)cc3)cc2C1=O (repeat unit)	105.00
*CC(*)(C)C(=O)OCc1ccc2c(c1)c1ccccc1n2CCCCCCCCCCCC (repeat unit)	25.00
*c1ccc(C(*)C)cc1 (repeat unit)	93.00
*C(=O)c1ccc2c(c1)C(=O)N(c1ccc(Oc3ccc(N4C(=O)c5ccc(*)cc5C4=O)cc3)cc1)C2=O (repeat unit)	290.00
*/C(C)=C(/*)c1ccc([Si](C)(C)C)cc1 (repeat unit)	-5.00
*C([2H])([2H])C(*)(C(=O)OC([2H])([2H])[2H])C([2H])([2H])[2H] (repeat unit)	115.00
*c1ccc(Oc2ccc(C3(c4ccc(Oc5ccc(-c6nc(-c7ccccn7)nnc6*)cc5)cc4)c4ccccc4-c4ccccc43)cc2)cc1 (repeat unit)	277.00
*CCOc1ccc(/C=C2\CC/C(=C\c3ccc(OCCOP(=O)(O*)OCC)c(OC)c3)C2=O)cc1OC (repeat unit)	80.00
